Where do the numbers come from? From the METLIN SMRT retention time set (Domingo-Almenara et al. 2019).

- assay_text: gradient 5% acetonitrile 3 min, to 50% in 2 min, to 85% in 15 min, held 3 min, 100 µL/min
- test_settings: column: Zorbax Extend-C18 2.1 x 50 mm; eluents: water / acetonitrile, 0.1% formic acid
Measured RP-LC retention time, listed per entry.
The answer is to be given in s; state only the numeric part.

compound | RP-LC retention time [s]
CCOc1ccc(NC(=O)c2nc(C)oc2C)cc1 | 884
COc1ccc2c(c1)CCN(C(=O)c1csc(-n3cccc3)n1)C2 | 895
Cc1ccc(C(=O)N2CCC(COc3ccc(C(=O)NC(C)C)cc3)CC2)s1 | 888
CCCn1c(=O)c2cc(C(=O)N3CCN(c4ccccc4)CC3)nn2c2ccccc21 | 1030
Cc1cccc(NS(=O)(=O)c2ccc3c(c2)C(=O)N(C)c2ncccc2O3)c1 | 1050

[in] For the compound shown here, O=C(Nc1nnc(-c2ccco2)o1)c1c[nH]c2ccccc12 , give the reported RP-LC retention time.
[out] 656

[in] Follow-up item: Cc1nc(-c2ccc(C(F)(F)F)cc2)ncc1C(=O)NCCc1cccs1
[out] 1120

[in] Follow-up item: COc1cccc(-c2nnc(Cc3nc(-c4ccc(Br)cc4)no3)o2)c1
[out] 1100

[in] Follow-up item: Cc1ccc(Nc2c(-c3ccc(C)cc3)nc3cnccn23)cc1
[out] 969

[in] Follow-up item: Cc1cc(C)n(-c2cc(NCCNC(=O)c3ccc(F)cc3F)ncn2)n1
[out] 718

* * *

- assay_text: gradient 5% acetonitrile 3 min, to 50% in 2 min, to 85% in 15 min, held 3 min, 100 µL/min
- test_settings: column: Zorbax Extend-C18 2.1 x 50 mm; eluents: water / acetonitrile, 0.1% formic acid
Measured RP-LC retention time, listed per entry.
Reply with a number, then the unit it belongs to.

Reference set, count: 3
molecule | test_result
COCC(=O)N(CC(=O)N1CCc2sccc2C1COc1ccc(C(C)C)cc1)C1CC1 (configuration not stated) | 947 s
COc1ccc(-c2nnc(Cc3nc(-c4ccc5c(c4)OCO5)no3)o2)cc1 | 916 s
COc1ccc(-c2cc(=O)c3c(O)c(OC)c(OC)cc3o2)cc1O | 906 s

[in] For the molecule shown here, COc1ccc(-c2cc3n(n2)CCCN(S(=O)(=O)c2ccc4c(c2)CCC4)C3)cc1 , give the reported RP-LC retention time.
[out] 1080 s

[in] Follow-up item: COc1ccc(NC(=O)c2cc3c(=O)n(CC(C)C)ccc3n2C)cc1Cl
[out] 895 s

[in] Follow-up item: O=C(Cn1c(=O)n(-c2ccccc2)c2ncccc21)NC1CCN(Cc2ccccc2)CC1
[out] 630 s

[in] Follow-up item: CCOC(=O)C(=O)Nc1ccc(-c2nc(-c3ccc(C)cc3C)co2)cc1
[out] 1170 s

[in] Follow-up item: O=c1c2sccc2n(Cc2nc(-c3ccc(F)c(Cl)c3)no2)c(=O)n1-c1ccc(F)cc1
[out] 1090 s

* * *

Measured RP-LC retention time, listed per entry.
- assay_text: gradient 5% acetonitrile 3 min, to 50% in 2 min, to 85% in 15 min, held 3 min, 100 µL/min
- test_settings: column: Zorbax Extend-C18 2.1 x 50 mm; eluents: water / acetonitrile, 0.1% formic acid
The answer is to be given in s; state only the numeric part.

[in] For the compound shown here, Cc1ccc(-c2ccc(-n3nc(C)c(S(=O)(=O)N4CCN(C(C)C)CC4)c3C)nn2)cc1C , give the reported RP-LC retention time.
[out] 785

[in] Follow-up item: Cn1nc(C(=O)N2CCOCC2)c2c1CCN(C(=O)Nc1ccccc1Br)C2
[out] 674
